# MEASURED_ON: Metabotropic glutamate receptor 1 (Homo sapiens)
# Sequence (Q13255 whole entry): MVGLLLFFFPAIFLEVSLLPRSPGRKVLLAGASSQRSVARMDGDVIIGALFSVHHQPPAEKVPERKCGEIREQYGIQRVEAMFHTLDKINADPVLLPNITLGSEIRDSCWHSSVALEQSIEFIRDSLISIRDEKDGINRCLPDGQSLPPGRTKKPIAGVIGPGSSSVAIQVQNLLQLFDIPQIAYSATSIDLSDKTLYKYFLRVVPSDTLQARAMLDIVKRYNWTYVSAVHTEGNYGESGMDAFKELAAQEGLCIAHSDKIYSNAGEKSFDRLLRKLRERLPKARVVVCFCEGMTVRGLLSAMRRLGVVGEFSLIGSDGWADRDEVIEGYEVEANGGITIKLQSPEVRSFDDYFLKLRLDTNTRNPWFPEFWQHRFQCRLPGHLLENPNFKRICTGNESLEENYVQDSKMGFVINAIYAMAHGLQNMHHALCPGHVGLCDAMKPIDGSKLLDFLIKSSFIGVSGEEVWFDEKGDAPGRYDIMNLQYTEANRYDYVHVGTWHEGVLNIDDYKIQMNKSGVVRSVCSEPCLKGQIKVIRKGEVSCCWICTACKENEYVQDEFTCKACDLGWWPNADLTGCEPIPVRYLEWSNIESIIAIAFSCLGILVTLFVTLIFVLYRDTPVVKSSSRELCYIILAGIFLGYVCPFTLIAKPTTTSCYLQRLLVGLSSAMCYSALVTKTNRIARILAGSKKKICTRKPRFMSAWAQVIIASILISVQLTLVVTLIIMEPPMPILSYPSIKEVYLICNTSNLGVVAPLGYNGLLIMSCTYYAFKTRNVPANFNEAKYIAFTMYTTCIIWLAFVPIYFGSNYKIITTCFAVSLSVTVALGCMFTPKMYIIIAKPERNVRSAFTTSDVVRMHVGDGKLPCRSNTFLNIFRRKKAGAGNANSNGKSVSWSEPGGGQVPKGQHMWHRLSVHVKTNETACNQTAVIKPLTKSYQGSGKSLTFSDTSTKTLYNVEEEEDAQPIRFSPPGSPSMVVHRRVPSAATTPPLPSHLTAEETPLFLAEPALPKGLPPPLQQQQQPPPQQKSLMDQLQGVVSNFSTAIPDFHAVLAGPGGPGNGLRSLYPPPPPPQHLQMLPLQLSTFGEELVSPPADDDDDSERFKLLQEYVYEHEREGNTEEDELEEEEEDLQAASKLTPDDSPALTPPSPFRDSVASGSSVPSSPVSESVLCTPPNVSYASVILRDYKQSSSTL
# TEST_NAME: Effective concentration for half maximal stimulation of PI hydrolysis (mGluR1a)
RECORDED_METRIC: EC50 (µM)
Report the value in µM with no unit label.

Lab book: EC50 of N[C@H](C(=O)O)c1cc(=O)[nH]o1 noted as 6

Lookup result for N[C@H](C(=O)O)c1cccc(O)c1 ; measured EC50: 68
